Hello, the source for this data is the supplement of paper PMC6757056, in case you need it.

B1: library; a variant is named by its letters at N, in order (parent)
chain: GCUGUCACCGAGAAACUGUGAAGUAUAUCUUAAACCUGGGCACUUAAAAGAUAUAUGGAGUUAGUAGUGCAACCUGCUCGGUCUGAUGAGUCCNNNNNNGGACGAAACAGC

# Variants of: B1
# procedure-text: normalized RNA/DNA level without ligand (relative to sTRSVctl = 100) (log10 (% of sTRSVctl)); HEK293T; ligand: cyclic di-GMP (c-di-GMP-II aptamer); higher = less ribozyme self-cleavage, higher mRNA level
# applied-conditions: reporter: mCherry (pCS4076), ligand present: no
For each of the variants below, state its normalized RNA/DNA level without ligand (log10).
Form: value (number only, do not type unit).

For this variant ( `UAUCUU` ), measured normalized RNA/DNA level without ligand (log10) is 1.72

get_value(item= `GGGGCC` , readout=normalized RNA/DNA level without ligand (log10)) returns 1.85

Sure, the documented normalized RNA/DNA level without ligand (log10) for `UCCAAC` is 1.62

The reported value for `CUAACU` in terms of normalized RNA/DNA level without ligand (log10) is 1.59

For `GCACAC` the variant record lists normalized RNA/DNA level without ligand (log10) as 1.55

Entry `UGUCGG` , normalized RNA/DNA level without ligand (log10) reported as 1.74

Entry `AUCUAC` , normalized RNA/DNA level without ligand (log10) reported as 1.72

Entry under test: `CGUCAU` . Its normalized RNA/DNA level without ligand (log10) was 1.46

Form field normalized RNA/DNA level without ligand (log10), entry `UGGACU` : 1.69

Summary for this variant, `GAACCU` : normalized RNA/DNA level without ligand (log10) is 1.69

In plain terms, `GAAAUU` has a documented normalized RNA/DNA level without ligand (log10) of 1.59

normalized RNA/DNA level without ligand (log10) in this record for `GUCCAU` : 1.66

Value of normalized RNA/DNA level without ligand (log10) reported for the variant `GUCCCA` is 1.77

Input `CUAGGG` . Output normalized RNA/DNA level without ligand (log10): 1.62

Record summary for `UCUCAC` : reported normalized RNA/DNA level without ligand (log10) = 1.78

So for `AUGAUC` , the logged normalized RNA/DNA level without ligand (log10) turned out to be 1.65

normalized RNA/DNA level without ligand (log10) for `CCAUGC` is 1.67

The variant listed as `GUAUUC` shows normalized RNA/DNA level without ligand (log10) equal to 1.48

The variant identified as `UCUUCC` registered its normalized RNA/DNA level without ligand (log10) at 1.79

The variant `AUAUUG` showed normalized RNA/DNA level without ligand (log10) equal to 1.6

Documented normalized RNA/DNA level without ligand (log10) of `GAGACG` : 1.8

Lab book: normalized RNA/DNA level without ligand (log10) of `AAUGGU` noted as 1.62
